condition: in ethanol, 298.15 K
experimental-endpoint: solubility (mole fraction)

{"columns": ["cpd-smiles", "result"],
 "data": [
  ["CC(C)c1nc(N(C)S(C)(=O)=O)nc(-c2ccc(F)cc2)c1/C=C/[C@@H](O)C[C@@H](O)CC(=O)[O-].CC(C)c1nc(N(C)S(C)(=O)=O)nc(-c2ccc(F)cc2)c1/C=C/[C@@H](O)C[C@@H](O)CC(=O)[O-].[Ca+2]", 0.000337]
]}

* * *

condition: in ethylene glycol, 298.15 K

{"columns": ["cpd-smiles", "solubility (mole fraction)"],
 "data": [
  ["CC(C)c1nc(N(C)S(C)(=O)=O)nc(-c2ccc(F)cc2)c1/C=C/[C@@H](O)C[C@@H](O)CC(=O)[O-].CC(C)c1nc(N(C)S(C)(=O)=O)nc(-c2ccc(F)cc2)c1/C=C/[C@@H](O)C[C@@H](O)CC(=O)[O-].[Ca+2]", 0.000255]
]}

* * *

condition: in ethylene glycol, 303.15 K

{"columns": ["cpd-smiles", "solubility (mole fraction)"],
 "data": [
  ["CC(C)c1nc(N(C)S(C)(=O)=O)nc(-c2ccc(F)cc2)c1/C=C/[C@@H](O)C[C@@H](O)CC(=O)[O-].CC(C)c1nc(N(C)S(C)(=O)=O)nc(-c2ccc(F)cc2)c1/C=C/[C@@H](O)C[C@@H](O)CC(=O)[O-].[Ca+2]", 0.000311]
]}

* * *

condition: in propylene glycol, 318.15 K

{"columns": ["cpd-smiles", "solubility (mole fraction)"],
 "data": [
  ["CC(C)c1nc(N(C)S(C)(=O)=O)nc(-c2ccc(F)cc2)c1/C=C/[C@@H](O)C[C@@H](O)CC(=O)[O-].CC(C)c1nc(N(C)S(C)(=O)=O)nc(-c2ccc(F)cc2)c1/C=C/[C@@H](O)C[C@@H](O)CC(=O)[O-].[Ca+2]", 0.0189]
]}

* * *

condition: in isopropanol, 318.15 K

{"columns": ["cpd-smiles", "solubility (mole fraction)"],
 "data": [
  ["CC(C)c1nc(N(C)S(C)(=O)=O)nc(-c2ccc(F)cc2)c1/C=C/[C@@H](O)C[C@@H](O)CC(=O)[O-].CC(C)c1nc(N(C)S(C)(=O)=O)nc(-c2ccc(F)cc2)c1/C=C/[C@@H](O)C[C@@H](O)CC(=O)[O-].[Ca+2]", 0.000566]
]}

* * *

condition: in ethylene glycol, 308.15 K
experimental-endpoint: solubility (mole fraction)

{"columns": ["cpd-smiles", "result"],
 "data": [
  ["CC(C)c1nc(N(C)S(C)(=O)=O)nc(-c2ccc(F)cc2)c1/C=C/[C@@H](O)C[C@@H](O)CC(=O)[O-].CC(C)c1nc(N(C)S(C)(=O)=O)nc(-c2ccc(F)cc2)c1/C=C/[C@@H](O)C[C@@H](O)CC(=O)[O-].[Ca+2]", 0.000374]
]}

* * *

condition: in ethanol, 313.15 K
experimental-endpoint: solubility (mole fraction)

{"columns": ["cpd-smiles", "experimental-endpoint", "result"],
 "data": [
  ["CC(C)c1nc(N(C)S(C)(=O)=O)nc(-c2ccc(F)cc2)c1/C=C/[C@@H](O)C[C@@H](O)CC(=O)[O-].CC(C)c1nc(N(C)S(C)(=O)=O)nc(-c2ccc(F)cc2)c1/C=C/[C@@H](O)C[C@@H](O)CC(=O)[O-].[Ca+2]", "solubility (mole fraction)", 0.00057]
]}

* * *

condition: in n-butanol, 318.15 K
experimental-endpoint: solubility (mole fraction)

{"columns": ["cpd-smiles", "experimental-endpoint", "result"],
 "data": [
  ["CC(C)c1nc(N(C)S(C)(=O)=O)nc(-c2ccc(F)cc2)c1/C=C/[C@@H](O)C[C@@H](O)CC(=O)[O-].CC(C)c1nc(N(C)S(C)(=O)=O)nc(-c2ccc(F)cc2)c1/C=C/[C@@H](O)C[C@@H](O)CC(=O)[O-].[Ca+2]", "solubility (mole fraction)", 0.00082]
]}

* * *

condition: in propylene glycol, 303.15 K

{"columns": ["cpd-smiles", "solubility (mole fraction)"],
 "data": [
  ["CC(C)c1nc(N(C)S(C)(=O)=O)nc(-c2ccc(F)cc2)c1/C=C/[C@@H](O)C[C@@H](O)CC(=O)[O-].CC(C)c1nc(N(C)S(C)(=O)=O)nc(-c2ccc(F)cc2)c1/C=C/[C@@H](O)C[C@@H](O)CC(=O)[O-].[Ca+2]", 0.0164]
]}

* * *

condition: in ethanol, 308.15 K

{"columns": ["cpd-smiles", "solubility (mole fraction)"],
 "data": [
  ["CC(C)c1nc(N(C)S(C)(=O)=O)nc(-c2ccc(F)cc2)c1/C=C/[C@@H](O)C[C@@H](O)CC(=O)[O-].CC(C)c1nc(N(C)S(C)(=O)=O)nc(-c2ccc(F)cc2)c1/C=C/[C@@H](O)C[C@@H](O)CC(=O)[O-].[Ca+2]", 0.000469]
]}

* * *

condition: in ethylene glycol, 318.15 K
experimental-endpoint: solubility (mole fraction)

{"columns": ["cpd-smiles", "result"],
 "data": [
  ["CC(C)c1nc(N(C)S(C)(=O)=O)nc(-c2ccc(F)cc2)c1/C=C/[C@@H](O)C[C@@H](O)CC(=O)[O-].CC(C)c1nc(N(C)S(C)(=O)=O)nc(-c2ccc(F)cc2)c1/C=C/[C@@H](O)C[C@@H](O)CC(=O)[O-].[Ca+2]", 0.000503]
]}

* * *

condition: in water, 313.15 K
experimental-endpoint: solubility (mole fraction)

{"columns": ["cpd-smiles", "result"],
 "data": [
  ["CC(C)c1nc(N(C)S(C)(=O)=O)nc(-c2ccc(F)cc2)c1/C=C/[C@@H](O)C[C@@H](O)CC(=O)[O-].CC(C)c1nc(N(C)S(C)(=O)=O)nc(-c2ccc(F)cc2)c1/C=C/[C@@H](O)C[C@@H](O)CC(=O)[O-].[Ca+2]", "1.13e-05"]
]}

* * *

condition: in sec-butanol, 313.15 K
experimental-endpoint: solubility (mole fraction)

{"columns": ["cpd-smiles", "result"],
 "data": [
  ["CC(C)c1nc(N(C)S(C)(=O)=O)nc(-c2ccc(F)cc2)c1/C=C/[C@@H](O)C[C@@H](O)CC(=O)[O-].CC(C)c1nc(N(C)S(C)(=O)=O)nc(-c2ccc(F)cc2)c1/C=C/[C@@H](O)C[C@@H](O)CC(=O)[O-].[Ca+2]", "9.92e-05"]
]}

* * *

condition: in water, 298.15 K
experimental-endpoint: solubility (mole fraction)

{"columns": ["cpd-smiles", "result"],
 "data": [
  ["CC(C)c1nc(N(C)S(C)(=O)=O)nc(-c2ccc(F)cc2)c1/C=C/[C@@H](O)C[C@@H](O)CC(=O)[O-].CC(C)c1nc(N(C)S(C)(=O)=O)nc(-c2ccc(F)cc2)c1/C=C/[C@@H](O)C[C@@H](O)CC(=O)[O-].[Ca+2]", "5.4e-06"]
]}

* * *

condition: in n-butanol, 303.15 K
experimental-endpoint: solubility (mole fraction)

{"columns": ["cpd-smiles", "result"],
 "data": [
  ["CC(C)c1nc(N(C)S(C)(=O)=O)nc(-c2ccc(F)cc2)c1/C=C/[C@@H](O)C[C@@H](O)CC(=O)[O-].CC(C)c1nc(N(C)S(C)(=O)=O)nc(-c2ccc(F)cc2)c1/C=C/[C@@H](O)C[C@@H](O)CC(=O)[O-].[Ca+2]", 0.000511]
]}

* * *

condition: in water, 308.15 K

{"columns": ["cpd-smiles", "solubility (mole fraction)"],
 "data": [
  ["CC(C)c1nc(N(C)S(C)(=O)=O)nc(-c2ccc(F)cc2)c1/C=C/[C@@H](O)C[C@@H](O)CC(=O)[O-].CC(C)c1nc(N(C)S(C)(=O)=O)nc(-c2ccc(F)cc2)c1/C=C/[C@@H](O)C[C@@H](O)CC(=O)[O-].[Ca+2]", "9e-06"]
]}

* * *

condition: in propylene glycol, 313.15 K

{"columns": ["cpd-smiles", "solubility (mole fraction)"],
 "data": [
  ["CC(C)c1nc(N(C)S(C)(=O)=O)nc(-c2ccc(F)cc2)c1/C=C/[C@@H](O)C[C@@H](O)CC(=O)[O-].CC(C)c1nc(N(C)S(C)(=O)=O)nc(-c2ccc(F)cc2)c1/C=C/[C@@H](O)C[C@@H](O)CC(=O)[O-].[Ca+2]", 0.0181]
]}

* * *

condition: in ethylene glycol, 313.15 K
experimental-endpoint: solubility (mole fraction)

{"columns": ["cpd-smiles", "result"],
 "data": [
  ["CC(C)c1nc(N(C)S(C)(=O)=O)nc(-c2ccc(F)cc2)c1/C=C/[C@@H](O)C[C@@H](O)CC(=O)[O-].CC(C)c1nc(N(C)S(C)(=O)=O)nc(-c2ccc(F)cc2)c1/C=C/[C@@H](O)C[C@@H](O)CC(=O)[O-].[Ca+2]", 0.00044]
]}
